# experimental_system: T1, monomeric CRP (mCRP) (UniProt P02741 19-224)
# T1 construct: C-reactive protein, monomeric (dissociated, denatured) form; Same protein in all assays: purified mCRP in solution or coated on plates; for SPR with the C1q peptides pentameric CRP was coupled to the chip and turned into mCRP by urea/EDTA, because mCRP precipitated in acetate buffer; also called monomeric C-reactive protein; urea-denatured mCRP; source: urea-denatured mCRP on the microplate; on …
# T1 sequence (looked up): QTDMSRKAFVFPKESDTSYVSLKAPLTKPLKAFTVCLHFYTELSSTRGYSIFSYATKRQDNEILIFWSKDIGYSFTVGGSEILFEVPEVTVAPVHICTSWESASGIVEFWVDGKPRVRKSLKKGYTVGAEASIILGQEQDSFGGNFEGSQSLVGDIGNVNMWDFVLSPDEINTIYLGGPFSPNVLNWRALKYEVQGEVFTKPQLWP
# measurement_notes: SPR; Biacore T200; CRP immobilised on a CM5 chip and denatured to mCRP by 200 s of 8 M urea and 5 mM EDTA; peptides A08, B78, A08-C injected at 30 μl/min in PBS with 0.05% P-20
# assay_context: both partners purified
Task for the reader: assign each of the following binders its reported pKd.
Numbers only, as −log10 of the molar value.

GRPGRRGRPGLKG (peptide from the collagen like region (CLR) of the C1q-A chain; Biotinylated and nonbiotinylated peptides were synthesized; also called C1qA08; source: synthetic peptide (GenScript, >95% purity)) [peptide A08]    5.33

Could you now look at the following binder, please?
Give reported pKd value for PGKVGPKGPMGPK (peptide from the collagen like region (CLR) of the C1q-B chain; Biotinylated and nonbiotinylated peptides were synthesized; source: synthetic peptide (GenScript, >95% purity)) [peptide B78]
2.46

The values you see were collected from paper PMC10150958.
